Would you kindly list IC50 for each of these molecules?
Target: human estrogen receptor α (Homo sapiens, UniProt P03372)
Construct: purchased Panvera
Experiment: Estrogen Receptor α Flash Plate Assay (binding of radiolabeled estrogen)
Details: flash plate binding, 0.5 nM radiolabeled estrogen; number in brackets = No. of determinations; NA = no detected activity at test concentration; read-out: Estrogen Receptor α in μM (No.)
Experimental: This assay monitors binding of radiolabeled estrogen to the estrogen receptor. It is performed on a BioMek 2000 (Beckman). Plates are read in a scintillation counter (Packard TopCount), with decreased counts an indication of binding of a compound to the receptor. The plate was sealed and incubated at 4° C. overnight. On day two, each well was washed three times with 200 μL PBS, pH 7.2, at room temperature. […] The wells were then counted for 1 min in a TopCount scintillation counter (Packard).
Numbers only, in µM.

INSERT INTO results (molecule, target, assayendpoint, quantityunit, reportedvalue) VALUES
  ('OCCCOc1ccc(C2Oc3cc(O)ccc3C3=C2c2ccc(O)cc2OCC3)cc1 (racemic)', 'human estrogen receptor α (Homo sapiens, UniProt P03372)', 'IC50', 'µM', 0.014),
  ('CN(C)CCOc1ccc(C2Oc3cc(O)ccc3C3=C2c2ccccc2OCC3)cc1 (single isomer, unassigned) [Compound 147]', 'human estrogen receptor α (Homo sapiens, UniProt P03372)', 'IC50', 'µM', 0.18);

We now examine a further molecule.
IN: Item CCN(CC)CCOc1ccc(C2Oc3cc(O)ccc3C3=C2c2ccc(O)cc2OC3)cc1 (stereo not drawn) with human estrogen receptor α (Homo sapiens, UniProt P03372) - IC50?
OUT: 0.0019

----------
Would you kindly list pEC50 for each of these molecules?
Tested on: Ishikawa cells
Assay: Alkaline Phosphatase Assay in Human Endometrial Ishikawa Cells (agonist and antagonist mode)
Format: cell-based
Settings: Homo sapiens, agonist mode, number in brackets = number of tests, NA = no detected activity at test concentration
pEC50: −log10 of the molar value.

INSERT INTO measurements (molecule, assayendpoint, reportedvalue) VALUES
  ('CC(C)(C)C(=O)Oc1ccc2c(c1)OC(C)(c1ccc(OCCN3CCCCC3)cc1)C1=C2COc2cc(OC(=O)C(C)(C)C)ccc21 (centres unmarked)', 'pEC50', '< 5.00'),
  ('CC(C)(C)C(=O)Oc1ccc2c(c1)OC(C)(c1ccc(OCCN3CCCC3)cc1)C1=C2COc2cc(OC(=O)C(C)(C)C)ccc21 (centres unmarked)', 'pEC50', '< 5.00'),
  ('Oc1ccc2c(c1)OC(c1ccc(OCCN3CCCCCC3)cc1)C1=C2COc2cc(O)ccc21 (centres unmarked)', 'pEC50', '< 5.00'),
  ('CN(C)c1ccc(C2Oc3cc(O)ccc3C3=C2c2ccc(O)cc2OC3)cc1 (centres unmarked)', 'pEC50', '< 5.00');

List reported pEC50 for each of these molecules:
1. CN(C)CCOc1ccc(C2Oc3cc(O)ccc3C3=C2c2ccc(O)cc2OC3)cc1 (centres unmarked)
2. CCN(CC)CCOc1ccc(C2Oc3cc(O)ccc3C3=C2c2ccc(O)cc2OC3)cc1 (centres unmarked)
3. CC(C)(C)C(=O)Oc1ccc2c(c1)OC(C)(c1ccc(OCCN3CCCCCC3)cc1)C1=C2COc2cc(OC(=O)C(C)(C)C)ccc21 (centres unmarked)

OUT:
< 5.00
< 5.00
< 5.00

List reported pEC50 for each of these molecules:
1. COc1ccc2c(c1)OCc1c-2c(=O)oc2cc(OC)ccc12
2. Oc1ccc2c(c1)OC(c1ccc(OCCN3CCOCC3)cc1)C1=C2COc2cc(O)ccc21 (centres unmarked)
3. CC(C)(C)C(=O)Oc1ccc2c(c1)OC(C)(c1ccc(OCCCN3CCCCC3)cc1)C1=C2COc2cc(OC(=O)C(C)(C)C)ccc21 (centres unmarked)
4. CC(C)(C)C(=O)Oc1ccc2c(c1)OC(c1ccc(OCCN3CCCCC3)cc1)C1=C2COc2cc(OC(=O)C(C)(C)C)ccc21 (centres unmarked)
5. Oc1ccc2c(c1)OC(c1ccc(OCCN3CCCCC3)cc1)C1=C2COc2cc(O)ccc21 (centres unmarked)
6. O=c1oc2cc(O)ccc2c2c1-c1ccc(O)cc1OC2
7. Oc1ccc2c(c1)OC(c1ccccc1)C1=C2COc2cc(O)ccc21 (centres unmarked)

OUT:
1: < 5.00; 2: < 5.00; 3: < 5.00; 4: < 5.00; 5: < 5.00; 6: 6.89; 7: 7.48

----------
Would you kindly list pIC50 for each of these compounds?
Target: human estrogen receptor α (Homo sapiens)
Construct: purchased Panvera
Sequence (P03372 1-595): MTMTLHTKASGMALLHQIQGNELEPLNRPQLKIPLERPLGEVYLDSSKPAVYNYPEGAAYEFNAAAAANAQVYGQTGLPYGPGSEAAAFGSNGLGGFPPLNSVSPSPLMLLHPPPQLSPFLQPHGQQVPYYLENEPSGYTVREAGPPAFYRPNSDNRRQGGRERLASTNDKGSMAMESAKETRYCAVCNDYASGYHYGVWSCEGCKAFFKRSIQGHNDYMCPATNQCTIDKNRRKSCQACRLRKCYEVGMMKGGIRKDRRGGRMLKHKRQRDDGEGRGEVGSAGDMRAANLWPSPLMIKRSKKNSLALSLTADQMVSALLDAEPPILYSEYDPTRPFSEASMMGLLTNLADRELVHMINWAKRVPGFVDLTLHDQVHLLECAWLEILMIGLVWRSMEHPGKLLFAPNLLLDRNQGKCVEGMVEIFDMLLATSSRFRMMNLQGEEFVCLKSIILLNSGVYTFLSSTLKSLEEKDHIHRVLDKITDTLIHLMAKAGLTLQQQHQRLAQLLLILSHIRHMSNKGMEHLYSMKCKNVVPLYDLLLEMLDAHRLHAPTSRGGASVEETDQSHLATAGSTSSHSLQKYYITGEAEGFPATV
Experiment: Estrogen Receptor α Flash Plate Assay (binding of radiolabeled estrogen)
Give bare numbers, as −log10 of the molar value.

INSERT INTO measurements (compound, assayendpoint, reportedvalue) VALUES
  ('COc1ccc2c(c1)OC(c1ccc(OCCN3CCCCC3)cc1)C1=C2CCOc2cc(OC)ccc21 (single isomer, unassigned)', 'pIC50', 7.22);

We now examine a further compound.
IN: Given Oc1ccc2c(c1)OC(c1ccc(OCCN3CCCCC3)cc1)C1=C2CCOc2cc(O)ccc21 (single isomer, unassigned) , state its recorded pIC50.
OUT: 8.59

----------
Would you kindly list melting point for each of these molecules?

Worked cases, melting point given:
INSERT INTO assay_data (molecule, reportedvalue) VALUES
  ('CC(C)(C)[Si](C)(C)Oc1ccc2c(c1)OCc1c-2c(=O)oc2cc(O[Si](C)(C)C(C)(C)C)ccc12', '150 to 151 °C'),
  ('O=c1oc2cc(F)ccc2c2c1-c1ccc(O)cc1OC2', '259 to 260 °C'),
  ('CC(C)(C)[Si](C)(C)Oc1ccc2c(c1)OC(O)C1=C2COc2cc(O[Si](C)(C)C(C)(C)C)ccc21 (stereo not shown)', '188 to 190 °C'),
  ('COc1ccc2c(c1)OCc1c-2c(=O)oc2cc(OC)ccc12', '200 to 201 °C'),
  ('O=c1oc2cc(O)ccc2c2c1-c1ccc(O)cc1OC2', '> 350 °C');

List reported melting point for each of these molecules:
1. CC(C)(C)[Si](C)(C)Oc1ccc2c(c1)OCC1=C2C(O)Oc2cc(F)ccc21 (stereo not shown)
2. CC(C)(C)[Si](C)(C)Oc1ccc2c(c1)OCc1c-2c(=O)oc2cc(F)ccc12

OUT:
["166 to 167 °C", "197 to 198 °C"]

----------
Target: hER-β (Homo sapiens)
Construct: purchased Panvera
Sequence (Q92731 whole entry): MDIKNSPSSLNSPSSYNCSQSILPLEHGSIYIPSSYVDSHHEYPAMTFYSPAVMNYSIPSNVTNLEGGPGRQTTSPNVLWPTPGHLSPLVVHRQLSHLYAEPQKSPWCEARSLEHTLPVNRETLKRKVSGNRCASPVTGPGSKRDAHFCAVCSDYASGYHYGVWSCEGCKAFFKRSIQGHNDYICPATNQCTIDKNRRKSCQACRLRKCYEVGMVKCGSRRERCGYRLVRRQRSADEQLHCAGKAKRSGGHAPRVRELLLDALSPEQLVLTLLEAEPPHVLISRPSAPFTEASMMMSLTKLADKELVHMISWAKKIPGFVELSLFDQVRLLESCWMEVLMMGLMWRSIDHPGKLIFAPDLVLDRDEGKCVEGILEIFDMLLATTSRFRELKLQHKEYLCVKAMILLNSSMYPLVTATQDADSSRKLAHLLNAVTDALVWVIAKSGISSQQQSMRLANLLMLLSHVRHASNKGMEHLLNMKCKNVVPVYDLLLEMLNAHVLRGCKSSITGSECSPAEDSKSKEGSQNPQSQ
Test: Estrogen Receptor β Fluorescence Polarization Assay (binding of Fluormone ES2)
Conditions: fluorescence polarization binding, Fluormone ES2; number in brackets = No. of determinations; NA = no detected activity at test concentration; read-out: Estrogen Receptor β in μM (No.)
assayEndpoint: IC50 (µM)
Give bare numbers, in µM.

INSERT INTO results (compound, assayendpoint, quantityunit, reportedvalue) VALUES
  ('O=c1oc2cc(O)ccc2c2c1-c1ccc(O)cc1OC2', 'IC50', 'µM', 0.061),
  ('CC(C)(C)C(=O)Oc1ccc2c(c1)OC(C)(c1ccc(OCCCN3CCCCC3)cc1)C1=C2COc2cc(OC(=O)C(C)(C)C)ccc21 (stereo not shown)', 'IC50', 'µM', 0.165),
  ('Oc1ccc2c(c1)OC(c1ccc(OCCN3CCCCC3)cc1)C1=C2COc2cc(O)ccc21 (stereo not shown)', 'IC50', 'µM', 0.084);

List reported IC50 for each of these compounds:
1. CC1(c2ccc(OCCN3CCCCC3)cc2)Oc2cc(O)ccc2C2=C1c1ccc(O)cc1OC2 (stereo not shown)
2. CC(C)(C)C(=O)Oc1ccc2c(c1)OC(c1ccc(OCCN3CCCCC3)cc1)C1=C2C(O)Oc2cc(OC(=O)C(C)(C)C)ccc21 (stereo not shown)
3. CN(C)CCOc1ccc(C2Oc3cc(O)ccc3C3=C2c2ccc(O)cc2OC3)cc1 (stereo not shown)
4. COc1ccc2c(c1)OC(c1ccc(OCCN3CCCCC3)cc1)C1=C2CCOc2cc(O)ccc21 (single isomer, unassigned)

OUT:
1: 0.017; 2: 6.25; 3: 0.011; 4: 0.355
